System: CCRIS mutagenicity, Ames/micronucleus/aberration tests
Assay: CCRIS mutagenicity studies
Conditions: Test System: AMES SALMONELLA TYPHIMURIUM; Strain/Indicator: TA97; Metabolic Activation: RAT, LIVER, S-9, PHENOBARBITAL AND 5,6-BENZOFLAVONE; Method: PREINCUBATION
The source made the active and inactive calls. How the calls were made is not given here.
reported-endpoint: mutagenic call

chem-smiles: O=c1c2cc(O)ccc2oc2cc(O)cc(O)c12
tested-system: CCRIS mutagenicity, Ames/micronucleus/aberration tests
result: active; positive
--
chem-smiles: OC1c2ccccc2Oc2ccccc21
tested-system: CCRIS mutagenicity, Ames/micronucleus/aberration tests
result: active; positive
--
chem-smiles: COc1cc(OC)c2c(=O)c3c(O)ccc(OC)c3oc2c1
tested-system: CCRIS mutagenicity, Ames/micronucleus/aberration tests
result: active; positive

====

Tested on: CCRIS mutagenicity, Ames/micronucleus/aberration tests
Test: CCRIS mutagenicity studies
Settings: Test System: AMES SALMONELLA TYPHIMURIUM; Strain/Indicator: TA1535; Metabolic Activation: S-9; Method: STANDARD PLATE
Calls of active or inactive are those of the source. How the calls were made is not given here.
reported-endpoint: mutagenic call

molecule: COP(=S)(OC)Oc1ccc(Sc2ccc(OP(=S)(OC)OC)cc2)cc1
tested-system: CCRIS mutagenicity, Ames/micronucleus/aberration tests
result: active; positive
--
molecule: CNC(=O)Oc1ccc2c(c1)[C@]1(C)CCN(C)[C@@H]1N2C
tested-system: CCRIS mutagenicity, Ames/micronucleus/aberration tests
result: inactive; negative
--
molecule: CN(N=O)C(=O)c1c(N(C)C(=O)OC(C)(C)C)ncn1C
tested-system: CCRIS mutagenicity, Ames/micronucleus/aberration tests
result: active; positive
--
molecule: O=C(CCl)Nc1snc2ccccc12
tested-system: CCRIS mutagenicity, Ames/micronucleus/aberration tests
result: inactive; negative
--
molecule: CCCCNC(=O)n1c(NC(=O)OC)nc2ccccc21
tested-system: CCRIS mutagenicity, Ames/micronucleus/aberration tests
result: inactive; negative
--
molecule: CC(=O)Nc1snc2ccc(Cl)cc12
tested-system: CCRIS mutagenicity, Ames/micronucleus/aberration tests
result: inactive; negative
--
molecule: CCC(C)Nc1snc2ccccc12 (stereo not drawn)
tested-system: CCRIS mutagenicity, Ames/micronucleus/aberration tests
result: inactive; negative

Alright, here's another molecule for you.
Task: # get_value(readout='mutagenic call', item= Nc1ccc2c(=O)[nH]sc2c1 )
Result: inactive; negative

====

Test system: CCRIS mutagenicity, Ames/micronucleus/aberration tests
Assay: CCRIS mutagenicity studies
Details: Test System: AMES SALMONELLA TYPHIMURIUM; Strain/Indicator: TA100; Metabolic Activation: RAT, LIVER, S-9, PCB; Method: PREINCUBATION
Activity calls are given as the source filed them. The rule behind the calls is not given here.
Your answer must be one of the following: 1 (active), 0 (inactive)

Worked set:
chem-smiles: C/C=C1/C[C@@H](C)[C@@](C)(O)C(=O)OC/C2=C/CN(C)CC[C@@H](OC1=O)C2=O
assigned-category: 1

chem-smiles: C=C1C/C(=C/C)C(=O)O[C@@H]2CCN3CC=C(COC(=O)[C@]1(C)O)[C@H]23
assigned-category: 0

chem-smiles: O=C1c2ccccc2C(=O)c2c(O)ccc(O)c21
assigned-category: 0

Task: Outcome logged for CC(C)(C)c1cc(O)ccc1O in this assay:
Result: 0

Task: Outcome logged for Nc1ccc(Oc2ccc(N)c(Cl)c2)cc1Cl in this assay:
Result: 1

Task: Outcome logged for Nc1ccc(Oc2ccc(Oc3ccc(N)cc3)cc2)cc1 in this assay:
Result: 1

Task: Outcome logged for Cc1cc(Cc2ccc(N)c(C)c2)ccc1N in this assay:
Result: 0

Task: Outcome logged for CC(=O)OCc1c(O)cc2c(c1O)C(=O)c1ccccc1C2=O in this assay:
Result: 1

Task: Outcome logged for Cc1nc2ccc(N(C)C)c(C)c2nc1C in this assay:
Result: 1

Task: Outcome logged for COC(=O)c1cc(Cc2ccc(N)c(C(=O)OC)c2)ccc1N in this assay:
Result: 1

Task: Outcome logged for O=[N+]([O-])c1ccc(Nc2ncnc3nc[nH]c23)cc1 in this assay:
Result: 0

Task: Outcome logged for CC(C)Sc1cc(Cc2ccc(N)c(SC(C)C)c2)ccc1N in this assay:
Result: 1

Task: Outcome logged for NCCN1CCNCC1 in this assay:
Result: 0

====

Test system: CCRIS mutagenicity, Ames/micronucleus/aberration tests
Experiment: CCRIS mutagenicity studies
Settings: End Point: IN VITRO MICRONUCLEUS; Test System: CHL/IU CELLS; Metabolic Activation: NONE
Activity calls are given as the source filed them. How the calls were made is not given here.
Your answer must be one of the following: True for active, False for inactive

Worked set:
chem-smiles: Oc1ccc(O)cc1
assigned-category: True

chem-smiles: ClC(Cl)=C(Cl)C(Cl)=C(Cl)Cl
assigned-category: True

chem-smiles: O=c1[nH]cc(F)c(=O)[nH]1
assigned-category: True

Task: Outcome logged for CCCCCCCCCCCCCC(=O)O[C@@H]1[C@@H](C)[C@@]2(O)[C@@H](C=C(CO)C[C@]3(O)C(=O)C(C)=C[C@@H]23)[C@@H]2C(C)(C)[C@]12OC(C)=O in this assay:
Result: False

====

System: CCRIS mutagenicity, Ames/micronucleus/aberration tests
Experiment: CCRIS mutagenicity studies
Details: Test System: AMES SALMONELLA TYPHIMURIUM; Strain/Indicator: TA102; Metabolic Activation: NONE; Method: STANDARD PLATE
The source made the active and inactive calls. No rule for the calls is given here.
Your answer must be one of the following: true (1) = active, false (0) = inactive

Worked set:
compound: CN(Cc1cnc2nc(N)nc(N)c2n1)c1ccc(C(=O)N[C@@H](CCC(=O)O)C(=O)O)cc1
assigned-category: false (0)
--
compound: O=C(O)c1cn(-c2ccc(F)cc2)c2cc(N3CCNCC3)c(F)cc2c1=O
assigned-category: false (0)
--
compound: NN
assigned-category: false (0)
--
compound: O=C1OC(O)C(CCl)=C1Cl (configuration not stated)
assigned-category: true (1)
--
compound: Cc1nc2c(c3[nH]c4ccccc4c13)C(=O)C(N1CCN(C)CC1)=CC2=O
assigned-category: false (0)

Task: Outcome logged for COP(=O)(OC)OC in this assay:
Result: false (0)

Task: Outcome logged for CN1CCN(c2ccc3nc(Cc4ccc5nc(-c6ccc(N(CCCl)CCCl)cc6)[nH]c5c4)[nH]c3c2)CC1 in this assay:
Result: false (0)

Task: Outcome logged for N.N.O=C([O-])C1(C(=O)[O-])CCC1.[Pt+4] in this assay:
Result: true (1)

Task: Outcome logged for Cc1ncc([N+](=O)[O-])n1C in this assay:
Result: true (1)

====

Test system: CCRIS mutagenicity, Ames/micronucleus/aberration tests
Experiment: CCRIS mutagenicity studies
Conditions: Test System: AMES SALMONELLA TYPHIMURIUM; Strain/Indicator: TA98; Metabolic Activation: RAT, LIVER, S-9; Method: STANDARD PLATE
The source made the active and inactive calls. No rule for the calls is given here.
Your answer must be one of the following: class 1 (active), class 0 (inactive)

molecule: c1ccc(NNc2ccccc2)cc1
assigned-category: class 0

molecule: COc1cc2c(c3oc(=O)c4c(c13)CC[C@@H]4O)[C@@H]1C=CO[C@@H]1O2
assigned-category: class 1

molecule: COC(=O)C1=CCCN(N=O)C1
assigned-category: class 1

molecule: CN(C)c1ccc(Cc2ccc(N(C)C)cc2)cc1
assigned-category: class 0

molecule: Cc1ccc(C)c(N=Nc2c(O)ccc3ccccc23)c1
assigned-category: class 0

Task: Outcome logged for CN(C)CCCNc1c2ccccc2nc2ccccc12 in this assay:
Result: class 0

Task: Outcome logged for Nc1cc(-c2ccncc2)c[nH]c1=O in this assay:
Result: class 0

Task: Outcome logged for Cc1cccc(Nc2ccncc2S(=O)(=O)NC(=O)NC(C)C)c1 in this assay:
Result: class 0

Task: Outcome logged for CN(C)CCCNc1c2ccccc2nc2cccc([N+](=O)[O-])c12 in this assay:
Result: class 1

Task: Outcome logged for CC[C@H](c1ccc(O)cc1)[C@@H](CC)c1ccc(O)cc1 in this assay:
Result: class 0

Task: Outcome logged for Cn1c(N)nc2c3cccnc3ccc21 in this assay:
Result: class 1

Task: Outcome logged for CCCCC(CC)COC(=O)c1ccc(C(=O)OCC(CC)CCCC)cc1 (stereo not drawn) in this assay:
Result: class 0

Task: Outcome logged for CC(N)=O in this assay:
Result: class 0

====

Test system: CCRIS mutagenicity, Ames/micronucleus/aberration tests
Test: CCRIS mutagenicity studies
Details: Test System: AMES SALMONELLA TYPHIMURIUM; Strain/Indicator: TA102; Metabolic Activation: NONE; Method: STANDARD PLATE
Active and inactive are the calls of the source. The rule behind the calls is not given here.

compound: C[C@@H]1Cc2c(Cl)cc(C(=O)NC(Cc3ccccc3)C(=O)O)c(O)c2C(=O)O1 (stereo partly drawn)
mutagenic call: inactive; negative

compound: CC=C(C)C(=O)O[C@H]1[C@H](OC(C)=O)[C@]2(CO)[C@H](O)C[C@]3(C)C(=CC[C@@H]4[C@@]5(C)CC[C@@H](O[C@@H]6O[C@H](C(=O)O)[C@@H](O[C@@H]7O[C@H](CO)[C@@H](O)[C@H](O)[C@H]7O)[C@H](O)[C@H]6O[C@@H]6O[C@H](CO)[C@@H](O)[C@H](O)[C@H]6O)[C@](C)(CO)[C@@H]5CC[C@]43C)[C@@H]2CC1(C)C
mutagenic call: inactive; negative

compound: CC1(C)CC(C(=O)NC(CO)C(O)CO)C(C)(C)N1[O] (stereo not drawn)
mutagenic call: inactive; negative
